meta.source: the supplement of paper PMC10567573

Test: protein stability index of a GFP-peptide fusion (GPS, HEK-293T) (PSI 1-6); higher = more stable;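 note: 24-mer peptide tiles fused after GFP, lentivirally expressed, FACS-sorted into six equal bins by GFP/DsRed ratio, decoded by Illumina sequencing, PSI is the read-weighted mean bin number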
Details: treatment: DMSO; c terminus: a fixed tail appended
Reported protein stability index maps to class as: bucket 1: < 3; bucket 2: ≥ 3 and < 4; bucket 3: ≥ 4

- SGYMEGYYTFHFLYFKDKIFNVAI [FBXO3]: bucket 2
- NIGKSHQGLKLYAVEISDHPGEHE [CPXM2]: bucket 3
- ADWFMSLGVGLLTFASLETVGIYF [TMEM40]: bucket 2
- DQWTPIAAMLRGQSDVGVAVFENK [KLHL13]: bucket 2
- QTPEQYYFCYKAILEFAEKEGMVS [PTPN9]: bucket 1
- RGNPELARLRPGLAVLGADERIFS [HAGHL]: bucket 2
- SSAGSVSPRSTSVTTTSSASVTTT [KRT13]: bucket 3
- LILSREASWAKPHYEFNLSRMKFR [LCOR]: bucket 1
- EFPDFYDSEEPVSTHQEAENEKDR [CHGB]: bucket 3
- HNIVHVHFDATRGWLLTSGTDKVI [WDFY2]: bucket 1
- RYDHGTFFPMGDEGASSQIGRAAG [HDAC6]: bucket 3
